Values from patent US12673052B2

- PROTOCOL_NOTES: Phase 1 first-in-human Study Compound 1-001 (NCT03845166): plasma pharmacokinetics
- Type: in vivo
- ASSAY_CONDITIONS: human, plasma, oral, 20 mg, 20 mg Tablet; Steady-State (Day 28); mean ± SD; read-out: AUC0-24
MEASURE: AUC(0-t) (ng·h/mL)
Provide the reading as a plain figure in ng·h/mL.

Any idea what its AUC(0-t) is? The compound is CNC(=O)c1cc2c(Oc3ccc(NC(=O)C4(C(=O)Nc5ccc(F)cc5)CC4)cc3)ccnc2cc1OC
5030

---

- TARGET_OF_ASSAY: AXL (Homo sapiens, UniProt P30530)
- Sequence (P30530 26-894): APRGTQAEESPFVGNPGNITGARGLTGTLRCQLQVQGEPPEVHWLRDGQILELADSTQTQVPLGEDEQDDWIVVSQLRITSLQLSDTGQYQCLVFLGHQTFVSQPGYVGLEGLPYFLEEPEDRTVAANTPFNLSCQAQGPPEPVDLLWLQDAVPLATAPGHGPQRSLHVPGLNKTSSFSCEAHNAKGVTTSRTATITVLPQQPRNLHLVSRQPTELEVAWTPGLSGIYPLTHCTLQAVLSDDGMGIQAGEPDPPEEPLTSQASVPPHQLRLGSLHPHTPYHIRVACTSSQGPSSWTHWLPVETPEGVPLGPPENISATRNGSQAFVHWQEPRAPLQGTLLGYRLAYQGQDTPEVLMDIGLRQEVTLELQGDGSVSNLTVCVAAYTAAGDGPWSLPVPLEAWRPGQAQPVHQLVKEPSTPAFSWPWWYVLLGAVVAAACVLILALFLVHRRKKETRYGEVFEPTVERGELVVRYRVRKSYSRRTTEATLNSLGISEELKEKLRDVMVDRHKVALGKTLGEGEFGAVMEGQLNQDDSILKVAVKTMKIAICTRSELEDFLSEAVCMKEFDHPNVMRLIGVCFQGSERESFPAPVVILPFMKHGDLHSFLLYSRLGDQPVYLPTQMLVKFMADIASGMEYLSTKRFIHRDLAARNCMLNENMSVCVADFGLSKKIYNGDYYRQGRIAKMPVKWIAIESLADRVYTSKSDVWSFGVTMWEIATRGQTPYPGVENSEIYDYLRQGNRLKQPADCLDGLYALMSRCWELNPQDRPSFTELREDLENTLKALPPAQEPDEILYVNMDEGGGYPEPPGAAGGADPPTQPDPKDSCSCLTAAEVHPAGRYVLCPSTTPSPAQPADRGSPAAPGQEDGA
- PROTOCOL_NOTES: RTK autophosphorylation ELISA, A-172 cells stimulated with Gas6
- Assay type: cell-based
- Parameters: cell lines (PC-3, HUVEC, and A-172) stimulated with ligands to their respective receptors to induce autophosphorylation (MET, VEGFR2, and AXL); endogenous in cells; host or cells: A-172
- ASSAY_CONDITIONS: ligand Gas6, read-out: Cellular IC50
MEASURE: IC50 (nM)
Provide the reading as a plain figure in nM.

Any idea what its IC50 is? The compound is CNC(=O)c1cc2c(Oc3ccc(NC(=O)C4(C(=O)Nc5ccc(F)cc5)CC4)cc3)ccnc2cc1OC
3.4

---

- PROTOCOL_NOTES: Single-dose plasma PK, IV and oral (PEG 400:EtOH:RO water)
- Format: in vivo, rats
- ASSAY_CONDITIONS: rat, plasma; single-dose IV 0.09-0.27 mg/kg; read-out: mean plasma clearance (CL) (converted)
MEASURE: clearance (mL/min/kg)
Provide the reading as a plain figure in mL/min/kg.

Any idea what its clearance is? The compound is CNC(=O)c1cc2c(Oc3ccc(NC(=O)C4(C(=O)Nc5ccc(F)cc5)CC4)cc3)ccnc2cc1OC [Compound 1]
0.39

---

- Tested on: CYP3A4
- PROTOCOL_NOTES: Cytochrome P450 induction (mRNA levels) in fresh primary human hepatocytes
- Assay type: in vitro ADME
- ASSAY_CONDITIONS: human, fresh primary human hepatocytes; mRNA induction; read-out: half-maximal effective concentration (EC50)
MEASURE: EC50

Any idea what its EC50 is? The molecule is CNC(=O)c1cc2c(Oc3ccc(NC(=O)C4(C(=O)Nc5ccc(F)cc5)CC4)cc3)ccnc2cc1OC
2980 nM

---

- PROTOCOL_NOTES: Single-dose plasma PK, IV and oral (PEG 400:EtOH:RO water)
- Assay type: in vivo, dogs
- ASSAY_CONDITIONS: beagle, dog, plasma; single-dose IV 0.2-0.6 mg/kg; read-out: mean plasma clearance (CL) (converted)
MEASURE: clearance (mL/min/kg)
Provide the reading as a plain figure in mL/min/kg.

Any idea what its clearance is? The molecule is CNC(=O)c1cc2c(Oc3ccc(NC(=O)C4(C(=O)Nc5ccc(F)cc5)CC4)cc3)ccnc2cc1OC [Compound 1]
6.33

---

- TARGET_OF_ASSAY: CYP3A4 (Homo sapiens)
- Sequence (P08684 whole entry): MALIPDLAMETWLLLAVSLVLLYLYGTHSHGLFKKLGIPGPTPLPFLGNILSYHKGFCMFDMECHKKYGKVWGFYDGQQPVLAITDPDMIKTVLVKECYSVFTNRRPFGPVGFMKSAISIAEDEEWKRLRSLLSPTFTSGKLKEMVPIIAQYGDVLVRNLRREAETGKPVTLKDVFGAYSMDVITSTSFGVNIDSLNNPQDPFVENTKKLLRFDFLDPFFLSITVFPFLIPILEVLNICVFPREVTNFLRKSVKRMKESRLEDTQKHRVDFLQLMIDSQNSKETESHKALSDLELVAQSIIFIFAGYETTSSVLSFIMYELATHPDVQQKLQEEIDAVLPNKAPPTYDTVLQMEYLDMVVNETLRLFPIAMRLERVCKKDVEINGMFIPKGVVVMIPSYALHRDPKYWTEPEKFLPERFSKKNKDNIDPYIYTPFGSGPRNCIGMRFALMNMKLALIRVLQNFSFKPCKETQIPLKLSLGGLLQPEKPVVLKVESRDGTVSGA
MEASURE: pKi
Lab note — pKi values are minus log10 of concentrations in M.

pKi of CNC(=O)c1cc2c(Oc3ccc(NC(=O)C4(C(=O)Nc5ccc(F)cc5)CC4)cc3)ccnc2cc1OC on CYP3A4 (Homo sapiens)?
4.60
